Procedure Text: Aqueous solubility test
Assay type: physicochemical
Setup Conditions: buffer solution, aqueous buffer, thermodynamic from solid; buffer at pH 7.4, rt; read-out: Aqueous solubility, buffer at pH 7.4
Property: solubility

Query string: Requested field: solubility. Item: CO/N=C1\C[C@@H](CCC(=O)Nc2ncc(C)s2)C2C3CCc4cc(OCOP(=O)(O)O)c(C(C)(C)C)cc4C3CC[C@]12C.[Na].[Na] (stereo partly shown) [Compound 15a]
Result string: > 30 mg/mL
